Values compiled from ChEMBL document CHEMBL3875170.

- experiment.summary: Cytotoxicity against human HeLa cells after 24 hrs by MTT assay
- Assay type: toxicity, cell-based
measured.endpoint: IC50 at 24 h (µM)
State the answer as a number, implicitly in µM.

Tell me IC50 at 24 h reported for Cc1ncc([N+](=O)[O-])n1CC(O)CSC(=S)N1CCCCC1 (racemic)
1400

Tell me IC50 at 24 h reported for Cc1nc([N+](=O)[O-])cn1CC(O)CSC(=S)N1CCN(c2cccc(Cl)c2)CC1 (racemic)
1740

Tell me IC50 at 24 h reported for Cc1ncc([N+](=O)[O-])n1CC(O)CN1CCC(Cc2ccccc2)CC1 (racemic)
1430

Tell me IC50 at 24 h reported for Cc1ncc([N+](=O)[O-])n1CC(O)CN1CCN(c2cccc(Cl)c2)CC1 (racemic)
1440

---

Exercise: state measured IC50 at 24 h for each of the compounds provided.
- experiment.summary: Cytotoxicity against human HeLa cells after 24 hrs by MTT assay
- Type: toxicity, cell-based
State the answer as a number, implicitly in mM.

Tell me IC50 at 24 h reported for Cc1nc([N+](=O)[O-])cn1CC(O)CSC(=S)N1CCN(c2cccc(Cl)c2Cl)CC1 (racemic)
0.724

Tell me IC50 at 24 h reported for CCN1CCN(CC(O)Cn2c([N+](=O)[O-])cnc2C)CC1 (racemic)
4.94

Tell me IC50 at 24 h reported for Cc1ncc([N+](=O)[O-])n1CC(O)CSC(=S)N1CCN(c2cccc(Cl)c2)CC1 (racemic)
1.08

Tell me IC50 at 24 h reported for Cc1ncc([N+](=O)[O-])n1CC(O)CSC(=S)N1CCN(c2ccccn2)CC1 (racemic)
2.97

Tell me IC50 at 24 h reported for CCN(CC)C(=S)SCC(O)Cn1c([N+](=O)[O-])cnc1C (racemic)
2.46

Tell me IC50 at 24 h reported for Cc1ncc([N+](=O)[O-])n1CC(O)CSC(=S)N1CCN(c2ccccc2F)CC1 (racemic)
3.24

Tell me IC50 at 24 h reported for CCN(C)C(=S)SCC(O)Cn1c([N+](=O)[O-])cnc1C (stereo not drawn)
4.15

Tell me IC50 at 24 h reported for Cc1ncc([N+](=O)[O-])n1CC(O)CSC(=S)N1CCCC(C)C1 (racemic)
0.609

Tell me IC50 at 24 h reported for Cc1nc([N+](=O)[O-])cn1CC(O)CSC(=S)N1CCCC(C)C1 (racemic)
2.7

Tell me IC50 at 24 h reported for Cc1ncc([N+](=O)[O-])n1CC(O)CSC(=S)N1CCN(C(=O)OC(C)(C)C)CC1 (racemic)
0.689

Tell me IC50 at 24 h reported for Cc1ncc([N+](=O)[O-])n1CC(O)Cn1nnc2ccccc21 (racemic)
4.24

Tell me IC50 at 24 h reported for Cc1ncc([N+](=O)[O-])n1CC(O)CSC(=S)N1CCN(c2cccc(Cl)c2Cl)CC1 (racemic)
1

Tell me IC50 at 24 h reported for COc1ccccc1N1CCN(CC(O)Cn2c([N+](=O)[O-])cnc2C)CC1 (racemic)
4.39

Tell me IC50 at 24 h reported for CCOC(=O)N1CCN(C(=S)SCC(O)Cn2cc([N+](=O)[O-])nc2C)CC1 (racemic)
2.36

Tell me IC50 at 24 h reported for Cc1ncc([N+](=O)[O-])n1CC(O)CSC(=S)N1CCCC1 (racemic)
1.34

Tell me IC50 at 24 h reported for Cc1ncc([N+](=O)[O-])n1CC(O)CSC(=S)N1CCCCCC1 (racemic)
0.411

Tell me IC50 at 24 h reported for Cc1ncc([N+](=O)[O-])n1CC(O)CSC(=S)N1CCC(Cc2ccccc2)CC1 (racemic)
1.32

Tell me IC50 at 24 h reported for Cc1ncc([N+](=O)[O-])n1CC(O)CN1CCN(c2ccco2)CC1 (racemic)
3.52

Tell me IC50 at 24 h reported for Cc1ncc([N+](=O)[O-])n1CC(O)Cn1cnc2ccccc21 (racemic)
4.53

Tell me IC50 at 24 h reported for Cc1ncc([N+](=O)[O-])n1CC(O)CN1CCN(c2ccccn2)CC1 (racemic)
1.83

Tell me IC50 at 24 h reported for Cc1ncc([N+](=O)[O-])n1CC(O)CSC(=S)N1CCC(C)CC1 (racemic)
1.82

Tell me IC50 at 24 h reported for Cc1ncc([N+](=O)[O-])n1CC(O)CSC(=S)N1CCN(c2ncccn2)CC1 (racemic)
2.04

Tell me IC50 at 24 h reported for Cc1ncc([N+](=O)[O-])n1CC(O)CN1CCN(c2ncccn2)CC1 (racemic)
3.93
